This collection of values is drawn from PubChem BioAssay AID624330.

target: Rac GTPase-activating protein 1 (Homo sapiens) (UniProt Q9H0H5); assay: blockers of MgcRacGAP-driven Rac1 GTP hydrolysis – biochemical, ADP Hunter fluorescence, primary and confirmatory, confirmation (AID 624330); settings: MgcRacGAP-stimulated Rac1 GTP hydrolysis, at 30 µM, active compounds read high, GST-tagged Rac1 F28L mutant substrate;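 note: fluorescence reports GDP produced by GAP-driven GTP hydrolysis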
Sequence (Q9H0H5 whole entry, looked up): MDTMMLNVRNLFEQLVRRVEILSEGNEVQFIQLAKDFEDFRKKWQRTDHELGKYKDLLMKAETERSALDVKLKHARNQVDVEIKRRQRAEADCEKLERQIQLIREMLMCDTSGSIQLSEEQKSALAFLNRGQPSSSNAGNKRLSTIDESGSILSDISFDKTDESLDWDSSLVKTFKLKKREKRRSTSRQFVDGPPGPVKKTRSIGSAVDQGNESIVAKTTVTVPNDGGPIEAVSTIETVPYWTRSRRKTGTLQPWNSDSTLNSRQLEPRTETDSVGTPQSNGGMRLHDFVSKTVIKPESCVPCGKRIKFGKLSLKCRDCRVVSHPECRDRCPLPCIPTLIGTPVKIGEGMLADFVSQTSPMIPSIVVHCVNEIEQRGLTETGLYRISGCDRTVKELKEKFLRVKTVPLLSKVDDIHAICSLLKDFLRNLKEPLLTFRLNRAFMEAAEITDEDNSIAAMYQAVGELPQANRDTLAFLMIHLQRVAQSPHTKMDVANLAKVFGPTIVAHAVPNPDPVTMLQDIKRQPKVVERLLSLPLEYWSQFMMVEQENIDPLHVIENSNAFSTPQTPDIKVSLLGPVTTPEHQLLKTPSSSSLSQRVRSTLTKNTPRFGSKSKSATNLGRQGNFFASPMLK
Among all 340,000 compounds or so, about 2,100 (0.62%) were called active. The list is a sample of the results. Results with a measured potency or affinity are listed apart.
quantityName: inhibition (%)
# value in %; strip the unit string

[in] Would you mind telling me what inhibition value was observed for "COc1ccc(NC(=O)N2CCN(S(=O)(=O)c3ccc(F)cc3)CC2)c(OC)c1" ?
[out] 7.35

[in] // repeat for "CC1CCN(C(=O)CSc2nnc(-c3cccnc3)o2)CC1" and report
[out] 7.43

[in] // repeat for "Cc1ccc(OCC(=O)NNC(=O)c2ccc(NC(=O)C3CC3)cc2)c(C)c1" and report
[out] 7.97

[in] // repeat for "CCOC(=O)c1c(NC(C)=O)sc2c(OC)c(Br)ccc12" and report
[out] -9.05

[in] // repeat for CCCCCCCNC(=O)C1(CC2CC(c3ccc(Cl)cc3)=NO2)CCN(C(=O)CCCCCBr)CC1 (configuration not stated) and report
[out] 3.79

[in] // repeat for "Cc1cc(NC(=O)c2ccc(C)o2)no1" and report
[out] 2.09

[in] // repeat for "Cc1onc(-c2ccccc2)c1-c1n[nH]c(=S)n1-c1ccc(C(=O)O)cc1" and report
[out] 5.16

[in] // repeat for CC1(c2nnc(-c3ccccc3)o2)CC(c2c(Cl)cccc2Cl)=NO1 (configuration not stated) and report
[out] 7.59

[in] // repeat for "CSc1nc2c(c(=O)[nH]c(=O)n2C)n1Cc1ccc(Cl)cc1" and report
[out] 11.4

[in] // repeat for Cn1nnnc1SCCNC(=O)C1CCC(=O)N(Cc2ccccc2F)C1 (configuration not stated) and report
[out] 11

[in] // repeat for Cn1c(COc2ccc([N+](=O)[O-])cc2)nnc1SCC(=O)NCC1CCCO1 (configuration not stated) and report
[out] 5.87

[in] // repeat for "COc1ccc(Nc2nc(OC)nc(OC)n2)cc1" and report
[out] 14.1

[in] // repeat for "CCOC(=O)c1c(NC(C)=O)sc2c(O)c(Br)ccc12" and report
[out] 4.12

[in] // repeat for "Cc1nnc(Nc2ccccc2F)s1" and report
[out] 8

[in] // repeat for COc1ccc(OCC(O)Cn2ccnc2C)cc1 (configuration not stated) and report
[out] -5.32

[in] // repeat for CCN(CC)C(=O)C(Sc1nnnn1-c1ccc(O)cc1)c1ccccc1 (configuration not stated) and report
[out] 3.92

[in] // repeat for "Cn1ccc(=O)c2cc([N+](=O)[O-])ccc21" and report
[out] 9.86

[in] // repeat for "CNc1nc(Nc2ccc(C(C)=O)cc2)nc(OC(C(F)(F)F)C(F)(F)F)n1" and report
[out] 8.39

[in] // repeat for "Cc1ccc(-c2nc3cnccn3c2Nc2ccc3c(c2)OCCO3)o1" and report
[out] 12.5

[in] // repeat for "CCOC(=O)c1c(N)sc2c(OCC)c(Br)ccc12" and report
[out] 5.92

[in] // repeat for "O=C(CN1C(=O)c2ccccc2S1(=O)=O)c1ccccc1" and report
[out] 8.2

[in] // repeat for CC(NC(=O)COC(=O)c1cc(=O)c2ccccc2o1)c1ccccc1 (configuration not stated) and report
[out] 2.31

[in] // repeat for "Cc1ccc(Nc2nc3ccccc3o2)cc1F" and report
[out] 1.08

[in] // repeat for "CCn1c2ccccc2c2cc(NC(=O)c3ccc([N+](=O)[O-])cc3)ccc21" and report
[out] 8.32

[in] // repeat for CC(CCN1CCN(c2ccccc2)CC1)c1ccccc1 (configuration not stated) and report
[out] 0.31

[in] // repeat for "CCc1cc2c(SCc3ccc(C(=O)OC)o3)ncnc2s1" and report
[out] 7.63

[in] // repeat for "COc1ccccc1/C=C/C(=O)OCc1nc2ccccc2c(=O)[nH]1" and report
[out] 7.19

[in] // repeat for "Cc1cccc(Nc2nc3ccccc3s2)c1C" and report
[out] 0.63

[in] // repeat for "C[C@H](CO)N1C[C@H](C)[C@@H](CN(C)S(=O)(=O)c2cccc(C#N)c2)OCc2cn(nn2)CCCC1=O" and report
[out] 13.9

[in] // repeat for "O=S(=O)(c1ccc2ccccc2c1)N1CCN(CCO)CC1" and report
[out] 1.28

[in] // repeat for "CCc1nnc(N/N=C/c2c(Cl)cccc2Cl)n1N" and report
[out] 6.89

[in] // repeat for "O=C1c2ccccc2C(=O)N1CSc1nnc(Nc2ccccc2F)s1" and report
[out] 5.49

[in] // repeat for CC(CCN1CCOCC1)c1ccccc1 (configuration not stated) and report
[out] 22.5

[in] // repeat for CCOc1cc(CNCC2CCCO2)cc(Br)c1OCC(N)=O (configuration not stated) and report
[out] 3.03

[in] // repeat for "CCOC(=O)N1CCN(Cc2ccc3ccccc3c2)CC1" and report
[out] 28.6

[in] // repeat for "Cc1noc(C)c1S(=O)(=O)Nc1ccc2c(c1)C(=O)N([C@H](C)CO)C[C@@H](C)[C@@H](CN(C)Cc1ccc3c(c1)OCO3)O2" and report
[out] 1.37

[in] // repeat for "Cn1c(=O)[nH]c(=O)c2c1nc(Br)n2Cc1ccc(Cl)cc1" and report
[out] 8.01

[in] // repeat for "O=C(C=Cc1ccccn1)c1ccccc1" and report
[out] 3.53

[in] // repeat for "CCc1nnc(N/N=C/c2ccccc2F)n1N" and report
[out] -6.59

[in] // repeat for "O=C(CSc1nncn1-c1ccccc1)Nc1ccccc1F" and report
[out] 3.06

[in] // repeat for "Cn1c(=O)[nH]c(=O)c2c1nc(Sc1ccccc1)n2CCc1ccccc1" and report
[out] 0.88

[in] // repeat for "c1ccc2cc(CN3CCOCC3)ccc2c1" and report
[out] 1.35

[in] // repeat for "O=C(O)C1(S(=O)(=O)c2ccc(Cl)cc2)CCC1" and report
[out] 6.58

[in] // repeat for "Cc1nccn1CCOc1ccc(Cl)cc1" and report
[out] 19.6

[in] // repeat for "O=[N+]([O-])c1ccccc1CN1CCN(Cc2ccc3ccccc3c2)CC1" and report
[out] 28.3

[in] // repeat for CC(C)=NNC(=O)CN1C(=O)NC2NC(=O)NC21 (configuration not stated) and report
[out] 6.56

[in] // repeat for "Cc1nc(CSc2nnc(Nc3cccc(C)c3C)s2)cs1" and report
[out] 4.77
